- tested.on: MAGI2_3, Q86UL8
- Sequence (Q86UL8 600-682): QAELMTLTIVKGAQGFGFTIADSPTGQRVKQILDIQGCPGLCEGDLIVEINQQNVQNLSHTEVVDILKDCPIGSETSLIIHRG
- assay: holdup assay
- Set-up: key: below the threshold = too weak to quantify, mostly under pKd 3.1 to 4
- condition.summary: plain residues with an end cap or a label only (N-terminal biotin on a linker: ado-ado)
endpoint: pKd

Solved cases below.
QSLNRMEYIV [JAG1, P78504]    below the threshold
RRRESYSTTV [EVI5, O60447]    below the threshold
QSARLWETSI [ADAM22, Q9P0K1]    below the threshold
SGSLKLMTTV [DACT1, Q9NYF0]    below the threshold
DDPSTAETVL [ABCA7, Q8IZY2]    3.71

Working through the 4 binders below one at a time, give pKd for each.
1. VNKSKLLTDV [KCNA1, Q09470]
2. CLREWCDAFL [BANF1, O75531]
3. TACCHSETVV [TGFA, P01135]
4. TASPAKETSF [SLC2A7, Q6PXP3]

1. below the threshold
2. below the threshold
3. below the threshold
4. below the threshold

List pKd for every entry below, keeping the order given.
1. TSSMRGMDAV [RSRC2, Q7L4I2]
2. PRAEAEDSFL [PDGFRB, P09619]
3. GNSVLKSTQF [SLC22A12, Q96S37]
4. PDGQCTVTEV [RNF146, Q9NTX7]
5. SAAKVLTSMC [GHRHR, Q02643]
6. AKPSRISTVV [IQSEC2, Q5JU85]
7. GSGAVEMESV [AQP6, Q13520]

below the threshold
3.55
3.61
3.94
below the threshold
3.55
below the threshold

Provenance of the data: paper PMC9482650
